# credit: patent US20100009956A1

- measured-on: Falcipain-3 (Plasmodium falciparum, UniProt Q8IIL0)
- Sequence (Q8IIL0 243-492): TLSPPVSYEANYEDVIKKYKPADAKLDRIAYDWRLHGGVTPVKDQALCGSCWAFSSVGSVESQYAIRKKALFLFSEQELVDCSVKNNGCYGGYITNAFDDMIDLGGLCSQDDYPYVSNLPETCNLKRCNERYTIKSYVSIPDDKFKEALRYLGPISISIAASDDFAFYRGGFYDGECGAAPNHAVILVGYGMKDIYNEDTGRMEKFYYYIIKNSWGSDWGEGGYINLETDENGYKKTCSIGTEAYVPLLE
- assay-comment: Falcipain-3 enzymatic assay (assay 1)
- Type: biochemical
Where a name gives a salt, the structure may show the parent alone.

compound | IC50
CN(CCCc1ccccc1)Cc1ccc(C(=O)NN(c2nc(C#N)ncc2Cl)C2CCCC2)cc1 [Example 64, trifluoroacetate] | 2.5 to 15 nM
CCN(Cc1ccc(C(=O)NN(c2nc(C#N)ncc2Cl)C2CCCC2)cc1)C(C)C [Example 68, trifluoroacetate] | 2.5 to 15 nM
N#Cc1ncc(Br)c(N(NC(=O)c2ccc(CN3CCC(N4CCOCC4)CC3)cc2)C2CCCC2)n1 [Example 6] | 2.5 to 15 nM
CN1CCCC(CN2CCN(Cc3cccc(C(=O)NN(c4nc(C#N)ncc4Br)C4CCCCC4)c3)CC2)C1 (stereo not drawn) [Example 27, trifluoroacetate] | 2.5 to 15 nM
CN1CCN(C2CCN(Cc3ccc(C(=O)NN(c4nc(C#N)ncc4Cl)C4CCOCC4)cc3)CC2)CC1 [Example 34, trifluoroacetate] | 2.5 to 15 nM
CC1CCC(N(NC(=O)c2ccc(CN3CCN(CC4CCN(C)CC4)CC3)cc2)c2nc(C#N)ncc2Br)C1 (mixture of isomers) [Example 5, trifluoroacetate] | 15 to 150 nM
